Values were extracted from patent US8981106B2.

# measured on: CXCR2 (Homo sapiens (Human), UniProt P25025)
# Sequence (P25025 whole entry): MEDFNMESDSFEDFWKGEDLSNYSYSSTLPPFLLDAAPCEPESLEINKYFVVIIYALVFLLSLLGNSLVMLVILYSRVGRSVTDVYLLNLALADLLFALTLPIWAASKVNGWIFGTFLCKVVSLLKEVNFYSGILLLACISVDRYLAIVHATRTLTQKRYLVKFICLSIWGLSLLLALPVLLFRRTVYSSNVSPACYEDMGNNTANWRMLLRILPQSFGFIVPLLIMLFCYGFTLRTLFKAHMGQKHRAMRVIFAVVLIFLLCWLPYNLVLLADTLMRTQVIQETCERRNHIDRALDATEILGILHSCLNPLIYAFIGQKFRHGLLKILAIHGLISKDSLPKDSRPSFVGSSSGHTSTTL
# protocol summary: Inhibition of GROα-mediated intracellular calcium release in human neutrophils (FLIPR-3 Ca2+ mobilization)
# Format: cell-based
# applied conditions: human neutrophils, 25 nM GROα; read-out: IC50
# IC50 values compiled below

chem smiles	IC50
CCOP(=O)(CSc1ccc(C(=O)Nc2ccc(F)cc2)cn1)OCC	> 10 µM
O=C(Nc1ccc(F)cc1)c1ccc(SCCCCN2C(=O)c3ccc([N+](=O)[O-])cc3C2=O)nc1	> 10 µM
COC(=O)c1ccccc1CSc1ccc(C(=O)Nc2ccc(F)cc2)cn1	0.759 µM
Cc1c(C(=O)CSc2ccc(C(=O)Nc3ccc(F)cc3)cn2)sc2ccccc12	> 10 µM
O=C(CSc1ccc(C(=O)Nc2ccc(F)cc2)cn1)c1ccc(Cl)c([N+](=O)[O-])c1	0.016 µM
O=C(CSc1ccc(C(=O)Nc2ccc(F)cc2)cn1)c1ccc2occc2c1	> 5 µM
CCCCCc1ccc(C(=O)CSc2ccc(C(=O)Nc3ccc(F)cc3)cn2)cc1	> 10 µM
Cc1ccc(C(=O)CSc2ccc(C(=O)Nc3ccc(F)cc3)cn2)c(C)c1	> 5 µM

====

# measured on: CXCR2 (Homo sapiens (Human), UniProt P25025)
# protocol summary: Inhibition of GROα-mediated intracellular calcium release in human neutrophils (FLIPR-3 Ca2+ mobilization)
# Type: cell-based
# applied conditions: human neutrophils, 25 nM GROα; read-out: IC50
# Procedure: In Tables 1-5, the IC50 or EC50 values were determined using the following assay. This assay measures intracellular calcium release via fluorescence as an indication of CXCR2 receptor activation by the physiologic agonist GROα. […] 6. The cell suspension was aliquoted into a 96-well Reading Plate (Corning) in a volume of 90 μL (10^5 cells/well). […] 9. The maximum change in fluorescence, expressed in arbitrary units over baseline (Max-Min) was used to determine the GROα response. […]
metric name: IC50

chem smiles	metric name	obs value
CCc1cc2c(cc1C(=O)CSc1ccc(C(=O)Nc3ccc(F)cc3)cn1)C(C)(C)CCC2(C)C	IC50	3.69 µM
O=C(Nc1ccc(F)cc1)c1ccc(SCc2cc3nsnc3cc2Cl)nc1	IC50	> 10 µM
O=C(Nc1ccc(F)cc1)c1ccc(SCC(=O)c2coc3ccccc23)nc1	IC50	> 10 µM
Cn1c(C(=O)CSc2ccc(C(=O)Nc3ccc(F)cc3)cn2)nc2ccccc21	IC50	0.703 µM
O=C(CSc1ccc(C(=O)Nc2ccc(F)cc2)cn1)c1ccc(OC(F)(F)F)cc1	IC50	> 10 µM
O=C(Nc1ccc(F)cc1)c1ccc(SCC(=O)c2cc(-c3ccc(Cl)cc3Cl)no2)nc1	IC50	> 5 µM
O=C(Nc1ccc(F)cc1)c1ccc(SCc2cccc3c2OCCCO3)nc1	IC50	0.35 µM
O=C(CSc1ccc(C(=O)Nc2ccc(F)cc2)cn1)c1cc(C(F)(F)F)cc(C(F)(F)F)c1	IC50	> 10 µM

====

Collected pIC50 values appear next to each entry.
# measured on: CXCR2 (Homo sapiens (Human), UniProt P25025)
# protocol summary: Inhibition of GROα-mediated intracellular calcium release in human neutrophils (FLIPR-3 Ca2+ mobilization)
# Assay type: cell-based
# applied conditions: read-out: IC50
pIC50: −log10 of the molar value.

chem smiles	pIC50
O=C(Nc1ccc(F)cc1)c1ccc(SCC(=O)c2ccco2)nc1	< 5.00
O=C(CSc1ccc(C(=O)Nc2ccc(F)cc2)cn1)c1ccc(Cl)c(Cl)c1	5.73
O=C(O)c1ccc(NC(=O)c2ccc(SCc3ccccc3B(O)O)nc2)cc1	< 5.00
O=C(CSc1ccc(C(=O)Nc2ccc(F)cc2)cn1)c1ccc([N+](=O)[O-])cc1	< 5.00

====

Examples of compounds with documented IC50 follow.
# measured on: CXCR2 (Homo sapiens (Human))
# protocol summary: Inhibition of GROα-mediated intracellular calcium release in human neutrophils (FLIPR-3 Ca2+ mobilization)
# Type: cell-based
# applied conditions: human neutrophils, 25 nM GROα; read-out: IC50
metric name: IC50

chem smiles	obs value
Cc1nc(-c2ccc(CSc3ccc(C(=O)Nc4ccc(F)cc4)cn3)cc2)no1	> 10 µM
Cc1nc(-c2cnccn2)sc1C(=O)CSc1ccc(C(=O)Nc2ccc(F)cc2)cn1	> 10 µM
O=C(O)CN(C(=O)c1ccc(SCc2ccccc2B(O)O)nc1)c1ccc(F)cc1	1.99 µM
Cc1ccc(C(=O)CSc2ccc(C(=O)Nc3ccc(F)cc3)cn2)cc1	> 10 µM
O=C(Nc1ccc(F)cc1)c1ccc(SCc2cccc3cccnc23)nc1	> 5 µM
O=C(Nc1ccc(F)cc1)c1ccc(SCc2ccc(-n3cncn3)cc2)nc1	> 10 µM

====

# measured on: CXCR2 (Homo sapiens (Human))
# protocol summary: Inhibition of GROα-mediated intracellular calcium release in human neutrophils (FLIPR-3 Ca2+ mobilization)
# Type: cell-based
# applied conditions: human neutrophils, 25 nM GROα; read-out: IC50
metric name: IC50 (nM)

chem smiles	modifier sign	obs value
Cc1nc(-c2cccc(CSc3ccc(C(=O)Nc4ccc(F)cc4)cn3)c2)no1	>	10000
O=C(CSc1ccc(C(=O)Nc2ccc(F)cc2)cn1)c1ccc(-c2nn[nH]n2)cc1	=	1150
O=C(Nc1ccc(F)cc1)c1ccc(SCC(=O)C(c2ccccc2)c2ccccc2)nc1	=	1230
O=C(Nc1ccc(F)cc1)c1ccc(SCC(=O)c2cc(-c3ccc(Cl)c(Cl)c3)no2)nc1	>	10000

====

# measured on: CXCR2 (Homo sapiens (Human), UniProt P25025)
# protocol summary: Inhibition of GROα-mediated intracellular calcium release in human neutrophils (FLIPR-3 Ca2+ mobilization)
# Assay type: cell-based
# applied conditions: human neutrophils, 25 nM GROα; read-out: IC50
Reported IC50 values for the following molecules.
metric name: IC50

molecule	metric name	obs value
O=C(Nc1ccc(F)cc1)c1ccc(SCCOc2cccc3c2OCCO3)nc1	IC50	1.58 µM
O=C(CSc1ccc(C(=O)Nc2ccc(F)cc2)cn1)c1ccc2sccc2c1	IC50	> 10 µM
Cc1c(C(=O)CSc2ccc(C(=O)Nc3ccc(F)cc3)cn2)cnn1-c1ccccc1	IC50	> 10 µM
O=C(c1ccc(SCc2ccccc2B(O)O)nc1)N(Cc1ccccn1)c1ccc(F)cc1	IC50	0.078 µM
Cc1nc(-c2ccc(Cl)cc2)sc1C(=O)CSc1ccc(C(=O)Nc2ccc(F)cc2)cn1	IC50	> 5 µM
O=C(Nc1ccc(F)cc1)c1ccc(SCc2cccc(OC(F)(F)F)c2)nc1	IC50	> 10 µM
O=C(Nc1ccc(O)cc1)c1ccc(SCc2ccccc2B(O)O)nc1	IC50	0.105 µM
O=C(Nc1ccc(F)c(C(=O)O)c1)c1ccc(SCc2ccccc2B(O)O)nc1	IC50	> 10 µM
O=C(c1ccc(SCc2ccccc2B(O)O)nc1)N(CC1CCCCN1)c1ccc(F)cc1 (stereo not drawn)	IC50	> 5 µM
O=C(Nc1ccc(F)cc1)c1ccc(SCc2ccc3nc(C(F)(F)F)cc(Cl)c3c2)nc1	IC50	> 5 µM
O=C(Nc1ccc(F)cc1)c1ccc(SCc2ccc(-c3ccsc3)cc2)nc1	IC50	> 10 µM
Cn1c(CSc2ccc(C(=O)Nc3ccc(F)cc3)cn2)nc2ccccc21	IC50	> 10 µM
O=C(CSc1ccc(C(=O)Nc2ccc(F)cc2)cn1)c1cccc(Br)c1	IC50	0.852 µM
O=C(Nc1ccc(F)cc1)c1ccc(SCc2ccc(B(O)O)cc2)nc1	IC50	0.899 µM
O=C(Nc1ccc(F)cc1)c1ccc(SCc2nccc3ccccc23)nc1	IC50	> 5 µM
O=C(CSc1ccc(C(=O)Nc2ccc(F)cc2)cn1)c1ccsc1	IC50	> 10 µM
O=C(CSc1ccc(C(=O)Nc2ccc(F)cc2)cn1)c1cccnc1	IC50	> 5 µM
O=C(Nc1ccc(F)cc1)c1ccc(SCc2csc3ccc(Cl)cc23)nc1	IC50	> 10 µM
Cc1noc(-c2ccccc2)c1CSc1ccc(C(=O)Nc2ccc(F)cc2)cn1	IC50	> 10 µM
CC1(C)CCC(C)(C)c2cc(C(=O)CSc3ccc(C(=O)Nc4ccc(F)cc4)cn3)ccc21	IC50	> 5 µM
Cc1nc(-c2ccc(C(F)(F)F)cc2)sc1CSc1ccc(C(=O)Nc2ccc(F)cc2)cn1	IC50	> 10 µM
Cc1nc(-c2ccccc2)sc1CSc1ccc(C(=O)Nc2ccc(F)cc2)cn1	IC50	1.21 µM
O=C(Nc1ccc(F)cc1)c1ccc(SCc2ccc3nsnc3c2)nc1	IC50	> 10 µM
O=C(Nc1ccc(F)cc1)c1ccc(SCCc2ccccc2B(O)O)nc1	IC50	0.387 µM
O=C(Nc1ccc(F)cc1)c1ccc(SCC(=O)c2ccccn2)nc1	IC50	> 10 µM
Cc1nc(-c2cccc(CSc3ccc(C(=O)Nc4ccc(F)cc4)cn3)c2)cs1	IC50	> 5 µM
Cc1cc(CSc2ccc(C(=O)Nc3ccc(F)cc3)cn2)no1	IC50	> 5 µM

====

# measured on: UniProt:P25025
# protocol summary: Inhibition of GROα-mediated intracellular calcium release in human neutrophils (FLIPR-3 Ca2+ mobilization)
# Type: cell-based
# applied conditions: human neutrophils, 25 nM GROα; read-out: IC50
metric name: IC50

compound	metric name	obs value
O=C(Nc1ccc(F)cc1)c1ccc(SCC(=O)c2nc3ccccc3s2)nc1 [Compound 145]	IC50	> 5 µM
O=C(Nc1ccc(F)cc1)c1ccc(SCc2cccc3nonc23)nc1 [Compound 66]	IC50	> 5 µM
O=C(Nc1ccc(F)cc1)c1ccc(SCC(=O)c2ccc(-c3ccccn3)s2)nc1 [Compound 124]	IC50	> 10 µM
